target entity: T1, 4H3858-bA
T1 chain: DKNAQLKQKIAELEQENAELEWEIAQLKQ
run description: two-hybrid library CCNG1;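 further: natural log of median RNA to DNA barcode read ratio; higher means stronger binding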
quantity name: interaction score

DENAQLKQKNAELKQEIAELEWEIAQLEQ [4H1985-bA] ... -1.31
DENAQLKQKIAELKQKIAELKWENAQLEQ [4H1899-bA] ... -0.565
DKNAQLKQENAELKQKIAELKWEIAQLEQ [4H3817-bA] ... -1.18
DENAQLEQKIAELKQENAELKWKIAQLEQ [4H1373-bA] ... 1.36

1. DKNAQLKQKIAELEQENAELEWEIAQLKQ [4H3858-bA]
2. DENAQLEQKIAELEQKNAELKWEIAQLKQ [4H1338-bA]
Recorded interaction score values differ for 1 and 2 ; which one is higher? Mark your selection by writing its label.
2
(2: 1.87, 1: 0.569)

P. DENAQLEQKNAELEQKIAELKWEIAQLEQ [4H1449-bA]
Q. DENAQLKQEIAELEQEIAELEWKNAQLKQ [4H1544-bA]
R. DKNAQLKQEIAELEQKIAELKWENAQLKQ [4H3628-bA]
Order the records so the highest interaction score appears first and the lowest last. Put the labels in the requested order and write them down.
R, Q, P
(R: -0.214, Q: -0.357, P: -0.848)

I. DENAQLKQENAELEQKIAELKWKIAQLKQ [4H1710-bA]
II. DENAQLEQKIAELKQEIAELEWENAQLKQ [4H1348-bA]
III. DENAQLEQENAELKQEIAELEWKIAQLKQ [4H1222-bA]
IV. DKNAQLKQEIAELEQENAELKWKIAQLEQ [4H3613-bA]
Order the records, beginning with the lowest interaction score and ending with the highest. Please reply with the labels ordered as requested. Many thanks.
II, III, IV, I
